Exercise: for every item that follows, state its recorded Ki.
- targetOfAssay: AKR1D1 (Homo sapiens)
- Type: biochemical
- experimentalParameters: read-out: Ki (substrate inhibition); dissociation constant for substrate from the E-NADP(H) complex; N.D. = not detected
The answer is to be given in µM; state only the numeric part.

-- ask Quick check: Ki of C[C@]12CCC(=O)C=C1CC[C@@H]1[C@@H]2CC[C@]2(C)C(=O)CC[C@@H]12 ?
-- reply 4.3

-- ask Quick check: Ki of C[C@]12CC[C@H]3[C@@H](CCC4=CC(=O)CC[C@@H]43)[C@@H]1CC[C@@H]2O ?
-- reply 18.6

---

Exercise: for every item that follows, state its recorded kcat.
- targetOfAssay: AKR1D1 (Homo sapiens)
- Type: biochemical
- experimentalParameters: fluorimetric, pH 6.0, 15 μM NADPH, 37 °C

-- ask Quick check: kcat of C[C@]12CCC(=O)C=C1CC[C@@H]1[C@@H]2C(=O)C[C@@]2(C)[C@H]1CC[C@]2(O)C(=O)CO ?
-- reply 0.195 ± 0.0017 s⁻¹

-- ask Quick check: kcat of C[C@]12CC[C@H]3[C@@H](CCC4=CC(=O)CC[C@@H]43)[C@@H]1CC[C@@H]2O ?
-- reply 0.045 ± 0.0033 s⁻¹

-- ask Quick check: kcat of CC(C)CCC[C@@H](C)[C@H]1CC[C@H]2[C@@H]3CCC4=CC(=O)CC[C@]4(C)[C@H]3CC[C@]12C ?
-- reply 0.01 ± 0.00067 s⁻¹

-- ask Quick check: kcat of C[C@]12CC[C@H]3[C@@H](CCC4=CC(=O)CC[C@@]43C)[C@@H]1CC[C@@H]2C(=O)CO ?
-- reply > 0.067 s⁻¹

---

- targetOfAssay: AKR1D1 (Homo sapiens)
- Sequence (P51857 1-326): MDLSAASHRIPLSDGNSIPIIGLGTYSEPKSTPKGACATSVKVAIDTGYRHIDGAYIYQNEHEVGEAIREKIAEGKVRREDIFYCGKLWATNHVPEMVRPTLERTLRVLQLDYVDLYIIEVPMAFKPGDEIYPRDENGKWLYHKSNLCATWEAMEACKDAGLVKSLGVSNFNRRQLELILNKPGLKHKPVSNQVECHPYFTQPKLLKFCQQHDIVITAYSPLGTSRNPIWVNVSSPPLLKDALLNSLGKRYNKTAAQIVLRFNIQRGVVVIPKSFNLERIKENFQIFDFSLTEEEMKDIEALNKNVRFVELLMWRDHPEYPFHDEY
- Assay type: biochemical
- experimentalParameters: fluorimetric, pH 6.0, 15 μM NADPH, 37 °C
Exercise: for every item that follows, state its recorded kcat.
The answer is to be given in s⁻¹; state only the numeric part.

-- ask Quick check: kcat of C[C@]12CCC(=O)C=C1CC[C@@H]1[C@@H]2CC[C@]2(C)C(=O)CC[C@@H]12 ?
-- reply 0.1

-- ask Quick check: kcat of CC(C)CCC[C@@H](C)[C@H]1CC[C@H]2[C@@H]3[C@H](O)CC4=CC(=O)CC[C@]4(C)[C@H]3CC[C@]12C ?
-- reply 0.0333

-- ask Quick check: kcat of C[C@]12C[C@H](O)[C@H]3[C@@H](CCC4=CC(=O)CC[C@@]43C)[C@@H]1CC[C@@H]2C(=O)CO ?
-- reply 0.0317

---

- targetOfAssay: AKR1D1 (Homo sapiens)
- Format: biochemical
- experimentalParameters: fluorimetric, pH 6.0, 15 μM NADPH, 37 °C
readoutLabel: Km (µM)
The answer is to be given in µM; state only the numeric part.

-- ask Quick check: Km of C[C@]12CCC(=O)C=C1CC[C@@H]1[C@@H]2CC[C@]2(C)C(=O)CC[C@@H]12 [Δ^4-Androstene-3,17-dione] ?
-- reply 0.9

-- ask Quick check: Km of CC(C)CCC[C@@H](C)[C@H]1CC[C@H]2[C@@H]3[C@H](O)CC4=CC(=O)CC[C@]4(C)[C@H]3CC[C@]12C [4-Cholesten-7α-ol-3-one] ?
-- reply 0.8

-- ask Quick check: Km of C[C@]12CCC(=O)C=C1CC[C@@H]1[C@@H]2C(=O)C[C@@]2(C)[C@H]1CC[C@]2(O)C(=O)CO [Cortisone] ?
-- reply 15.1

-- ask Quick check: Km of CC(C)CCC[C@@H](C)[C@H]1CC[C@H]2[C@@H]3CCC4=CC(=O)CC[C@]4(C)[C@H]3CC[C@]12C [Cholestenone] ?
-- reply 0.3

-- ask Quick check: Km of C[C@]12C[C@H](O)[C@H]3[C@@H](CCC4=CC(=O)CC[C@@]43C)[C@@H]1CC[C@@H]2C(=O)CO [Corticosterone] ?
-- reply 2.2

-- ask Quick check: Km of C[C@]12CC[C@H]3[C@@H](CCC4=CC(=O)CC[C@@H]43)[C@@H]1CC[C@@H]2O [4-Estren-17β-ol-3-one] ?
-- reply 3

---

Exercise: for every item that follows, state its recorded Ki.
- targetOfAssay: AKR1D1 (Homo sapiens)
- Sequence (P51857 1-326): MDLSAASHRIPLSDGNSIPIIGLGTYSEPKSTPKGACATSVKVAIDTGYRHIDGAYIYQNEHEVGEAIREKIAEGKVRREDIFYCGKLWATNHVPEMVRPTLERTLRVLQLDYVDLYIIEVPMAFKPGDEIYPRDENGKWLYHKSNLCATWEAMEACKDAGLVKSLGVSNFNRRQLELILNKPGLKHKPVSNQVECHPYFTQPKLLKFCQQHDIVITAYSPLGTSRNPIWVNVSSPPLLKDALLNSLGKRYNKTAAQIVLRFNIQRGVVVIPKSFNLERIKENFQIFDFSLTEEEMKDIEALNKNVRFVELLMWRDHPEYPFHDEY
- Type: biochemical

-- ask Quick check: Ki of C[C@]12CCC(=O)C=C1CC[C@@H]1[C@@H]2[C@@H](O)C[C@]2(C=O)[C@@H](C(=O)CO)CC[C@@H]12 ?
-- reply 66.5 µM

-- ask Quick check: Ki of C[C@]12CC[C@H]3[C@@H](CCC4=CC(=O)CC[C@@]43C)[C@@H]1CC[C@@H]2C(=O)CO ?
-- reply < 2 µM

-- ask Quick check: Ki of C[C@]12CC[C@H]3[C@@H](CCC4=CC(=O)CC[C@@]43C)[C@@H]1CC[C@H]2O [Epitestosterone] ?
-- reply 10 µM

-- ask Quick check: Ki of CC(=O)[C@H]1CC[C@H]2[C@@H]3CCC4=CC(=O)CC[C@]4(C)[C@H]3CC[C@]12C ?
-- reply < 2 µM

---

- targetOfAssay: AKR1D1 (Homo sapiens)
- testMethodNotes: Inhibition of [4-14C]-testosterone reduction, radiometric assay
- Type: biochemical
readoutLabel: pKi
// pKi here means minus log10 of the molar concentration (mol/L)

-- ask What measured pKi is associated with C[C@H](CCC(=O)O)[C@H]1CC[C@H]2[C@@H]3[C@H](O)C[C@@H]4C[C@H](O)CC[C@]4(C)[C@H]3CC[C@]12C on AKR1D1 (Homo sapiens)?
-- reply 5.49

-- ask What measured pKi is associated with C[C@H](CCC(=O)O)[C@H]1CC[C@H]2[C@@H]3[C@@H](O)C[C@@H]4C[C@H](O)CC[C@]4(C)[C@H]3CC[C@]12C on AKR1D1 (Homo sapiens)?
-- reply 5.01

---

- targetOfAssay: AKR1D1 (Homo sapiens, UniProt P51857)
- testMethodNotes: Inhibition of [4-14C]-testosterone reduction, radiometric assay
- Type: biochemical
pKi: −log10 of the molar value.
readoutLabel: pKi

-- ask Quick check: pKi of COc1ccc2c(c1)c(CC(=O)O)c(C)n2C(=O)c1ccc(Cl)cc1 ?
-- reply < 4.00

-- ask Quick check: pKi of Cc1cccc(Nc2ccccc2C(=O)O)c1C ?
-- reply < 4.00

-- ask Quick check: pKi of O=C(O)c1ccc(C(=O)c2ccccc2)cc1 ?
-- reply < 4.00
